Recorded measurements of SPOT peptide array binding signal intensity, one per entry
# Tgt: SpLsb4
# Test Summary: SPOT peptide array binding signal intensity (averaged, normalized) (arbitrary units (background-subtracted, floor 0; scale differs between SH3 domains)); higher = stronger binding of the SH3 domain to the peptide
Quick one: just the number, no unit, thanks!

binder=SSSSTPPTLPPRRIE value_measured=6340
binder=ALFRLSFFFPLDPAY value_measured=463

Query string: What does the data say about its SPOT peptide array binding signal intensity? Entry: TEVPIPRRPPPPQAA
Result string: 90.5

Query string: Sample PAPPPPPRASRPTPN — what was its SPOT peptide array binding signal intensity?
Result string: 1170

Query string: Given DAPASKPSVPPRNYF , state its recorded SPOT peptide array binding signal intensity.
Result string: 3340

Query string: Please give the measured SPOT peptide array binding signal intensity for this binder: KNPRRQLQIPRQQPS
Result string: 129

Query string: Requested read-out: SPOT peptide array binding signal intensity. Entry: LYEAMPPTLPHRDWK
Result string: 1290
